system_tested: p38α/MK2 (Homo sapiens)
Sequence (Q16539 whole entry): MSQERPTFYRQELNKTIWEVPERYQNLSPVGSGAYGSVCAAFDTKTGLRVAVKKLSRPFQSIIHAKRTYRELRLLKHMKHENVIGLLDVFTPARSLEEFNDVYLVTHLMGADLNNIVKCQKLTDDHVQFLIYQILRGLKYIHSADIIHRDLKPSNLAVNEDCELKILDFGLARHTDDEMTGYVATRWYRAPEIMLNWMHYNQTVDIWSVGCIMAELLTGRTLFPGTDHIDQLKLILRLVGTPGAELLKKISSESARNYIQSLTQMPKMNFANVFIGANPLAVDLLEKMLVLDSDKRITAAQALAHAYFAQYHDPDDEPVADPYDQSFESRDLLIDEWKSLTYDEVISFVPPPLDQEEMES
Sequence (P49137 whole entry partner): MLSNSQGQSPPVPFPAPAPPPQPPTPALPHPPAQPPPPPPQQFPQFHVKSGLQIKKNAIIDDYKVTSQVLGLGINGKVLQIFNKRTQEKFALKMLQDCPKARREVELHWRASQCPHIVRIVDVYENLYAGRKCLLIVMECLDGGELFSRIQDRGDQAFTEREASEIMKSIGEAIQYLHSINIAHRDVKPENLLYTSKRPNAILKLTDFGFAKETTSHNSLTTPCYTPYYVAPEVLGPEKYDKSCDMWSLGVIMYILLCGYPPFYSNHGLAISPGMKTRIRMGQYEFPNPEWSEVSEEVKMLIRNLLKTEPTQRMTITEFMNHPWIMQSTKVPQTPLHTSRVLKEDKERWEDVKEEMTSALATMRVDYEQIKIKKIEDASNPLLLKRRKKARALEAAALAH
assay_remarks: p38α/MK2 cascade assay (IMAP, Hsp27 peptide phosphorylation)
Format: biochemical
condition: ratio of p38α/PRAK:p38α/MK2 IC50 values
Property: Selectivity Ratio; scope: individual compounds
Number only, no unit.

Below, each entry is followed by its recorded Selectivity Ratio result.
Cc1ccc(-c2ccnc(C(C)(C)O)n2)cc1-n1c(C)nc(OCc2ccc(F)c(C)c2F)c(Cl)c1=O [Example 22] : 15.1
Cc1nc(COc2nc(C)n(-c3cc(-c4ccnc(C(C)(C)O)n4)ccc3C)c(=O)c2Br)cs1 [Example 11] : 10.9
Cc1ccc(-c2ccnc(C(C)(C)O)n2)cc1-n1c(C)nc(OCc2ncc(F)cc2F)c(Cl)c1=O [Example 21] : 7.63
Cc1cccc(COc2nc(C)n(-c3cc(-c4ccnc(C(C)(C)C)n4)ccc3C)c(=O)c2Cl)c1 [Example 4] : 12.6
Cc1nc(COc2nc(C)n(-c3cc(-c4ccnc(C(C)(C)O)n4)ccc3C)c(=O)c2Cl)cs1 [Example 12] : 17.9

Task item: Param item = Cc1cccc(COc2nc(C)n(-c3cc(-c4ccnc(C(C)(C)O)n4)ccc3C)c(=O)c2Cl)n1 (racemic) [Example 14] ; retrieve measured Selectivity Ratio.
Reply: 17.9

Task item: What value of measured Selectivity Ratio is listed for Cc1cc(COc2nc(C)n(-c3cc(-c4ccnc(C(C)(C)O)n4)ccc3C)c(=O)c2Cl)c(F)cc1F [Example 23] ?
Reply: 11.7

Task item: Which Selectivity Ratio value belongs to Cc1ccc(-c2ccnc(C(C)(C)O)n2)cc1-n1c(C)nc(OCc2ccc(F)cc2)c(Cl)c1=O [Example 3] ?
Reply: 10.1

Task item: Field request: Selectivity Ratio | item: Cc1cccc(COc2nc(C)n(-c3cc(-c4ccnc(C(C)(C)O)n4)ccc3C)c(=O)c2Cl)c1 [Example 5]
Reply: 14.9

Task item: Bench note: what Selectivity Ratio did Cc1nc(COc2nc(C)n(-c3cc(-c4ccnc(C(C)(C)O)n4)ccc3C)c(=O)c2Cl)co1 [Example 9] show?
Reply: 10.6

Task item: Requested read-out: Selectivity Ratio. Entry: COc1cccc(COc2nc(C)n(-c3cc(-c4ccnc(C(C)(C)C)n4)ccc3C)c(=O)c2Cl)c1 [Example 6]
Reply: 6.1

Task item: Look up Selectivity Ratio for this compound: Cc1ccc(-c2ccnc(C(C)(C)O)n2)cc1-n1c(C)nc(OCc2ncc(F)cc2F)c(Cl)c1=O (racemic) [Example 19]
Reply: 14.1

Task item: Name the reported Selectivity Ratio value associated with the compound Cc1ccc(-c2ccnc(C(C)(C)O)n2)cc1-n1c(C)nc(OCc2ncc(F)cc2F)c(Cl)c1=O [Example 20]
Reply: 2.82

Task item: Requested field: Selectivity Ratio. Item: Cc1ccc(-c2ccnc(C(C)(C)O)n2)cc1-n1c(C)nc(OCc2ccc(F)cc2F)c(Br)c1=O [Example 1]
Reply: 5.1

Task item: For the compound shown here, COc1cccc(COc2nc(C)n(-c3cc(-c4ccnc(C(C)(C)O)n4)ccc3C)c(=O)c2Cl)c1 [Example 7] , give the reported Selectivity Ratio.
Reply: 24

Task item: Selectivity Ratio for Cc1nc(COc2nc(C)n(-c3cc(-c4ccnc(C(C)(C)O)n4)ccc3C)c(=O)c2Cl)co1 (racemic) [Example 8] ?
Reply: 18.1

Task item: Can you share its Selectivity Ratio? I mean this compound: Cc1ccc(-c2ccnc(C(C)(C)O)n2)cc1-n1c(C)nc(OCc2cccc(F)n2)c(Cl)c1=O [Example 18]
Reply: 13.3

Task item: Requested read-out: Selectivity Ratio. Entry: Cc1cccc(COc2nc(C)n(-c3cc(-c4ccnc(C(C)(C)O)n4)ccc3C)c(=O)c2Cl)n1 [Example 15]
Reply: 23.6

Task item: Name the recorded Selectivity Ratio for Cc1ccc(-c2ccnc(C(C)(C)O)n2)cc1-n1c(C)nc(OCc2ccc(F)cc2F)c(Cl)c1=O [Example 2] .
Reply: 5.5

Task item: Could you share which Selectivity Ratio value was measured for Cc1cccc(COc2nc(C)n(-c3cc(-c4ccnc(C(C)(C)O)n4)ccc3C)c(=O)c2Br)n1 [Example 13] ?
Reply: 15.4

Values from patent US9056110B2
